ASSAYED_SYSTEM: MAPKAPK5 (Homo sapiens)
Sequence (Q8IW41 1-471 isoform Q8IW41-2): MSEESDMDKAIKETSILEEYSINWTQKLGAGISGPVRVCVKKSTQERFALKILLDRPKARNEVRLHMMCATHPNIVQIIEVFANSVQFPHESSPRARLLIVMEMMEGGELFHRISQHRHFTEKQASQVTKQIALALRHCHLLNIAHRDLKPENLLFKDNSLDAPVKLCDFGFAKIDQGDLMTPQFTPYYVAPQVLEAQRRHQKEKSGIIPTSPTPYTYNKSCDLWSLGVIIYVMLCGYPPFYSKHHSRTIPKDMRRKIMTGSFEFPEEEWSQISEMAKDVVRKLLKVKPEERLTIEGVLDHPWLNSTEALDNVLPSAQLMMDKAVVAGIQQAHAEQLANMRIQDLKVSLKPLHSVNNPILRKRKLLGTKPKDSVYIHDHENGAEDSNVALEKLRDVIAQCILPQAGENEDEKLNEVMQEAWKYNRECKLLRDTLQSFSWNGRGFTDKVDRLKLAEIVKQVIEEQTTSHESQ
Each item that follows carries a reported IC50.

O=C1NCc2cc(-c3cnc(Nc4cnc(N5CCOCC5)nc4)c4ncnn34)ccc21 = 101 to 500 nM
c1nc2c(Nc3ccc(N4CCOCC4)cc3)ncc(-c3ccc4nonc4c3)n2n1 = > 1000 nM
COCCN1CCN(C(=O)c2ccc(Nc3ncc(-c4cn[nH]c4)n4ncnc34)cc2)CC1 = 501 to 1000 nM
CN1CCN(c2ccc(Nc3ncc(-c4ccc(C(N)=O)cc4)n4ncnc34)cc2)CC1 = > 1000 nM
OCc1n[nH]cc1-c1cnc(Nc2ccc(N3CCOCC3)cc2)c2ncnn12 = > 1000 nM

[Q] Which IC50 is reported for this compound? CC(C)N1CCN(c2ccc(Nc3ncc(-c4ccnc(CO)c4)n4ncnc34)cc2)CC1
[A] > 1000 nM

[Q] Would you kindly repeat that for COc1cc(Nc2ncc(-c3cn[nH]c3)n3ncnc23)ccc1C(=O)NCc1ccc(C)nc1 ?
[A] > 1000 nM

[Q] Would you kindly repeat that for CC(C)N1CCN(c2ccc(Nc3ncc(-c4ccc5c(c4)CNC5=O)n4ncnc34)cc2)CC1 ?
[A] 1 to 100 nM

[Q] Would you kindly repeat that for Cc1sc(C(N)=O)cc1-c1cnc(Nc2ccc(N3CCN(C(C)C)CC3)nc2)c2ncnn12 ?
[A] > 1000 nM

[Q] Would you kindly repeat that for CN1CCN(c2ccc(NC(=O)c3ccc(Nc4ncc(-c5cn[nH]c5)n5ncnc45)cc3)cc2)CC1 ?
[A] 501 to 1000 nM

[Q] Would you kindly repeat that for O=C(N[C@H]1CCN(Cc2ccccc2)C1)c1ccc(Nc2ncc(-c3cn[nH]c3)n3ncnc23)cc1 ?
[A] > 1000 nM
